# ASSAY_COMMENT: Cmax in C57BL6 mouse at 10 mg/kg, ip measured upto 24 hrs
# Assay type: ADME, organism-based
# Set-up: route intraperitoneal, dose 10 mg/kg, time <=24
# PROTOCOL_CONDITIONS: in vivo
RECORDED_ENDPOINT: Cmax (ng/mL)
Report the figure in ng/mL without appending any unit label.

Please look up its Cmax: O=C(Nc1ccc(Br)cc1)NC1CCN(c2ccccc2)C1=O (stereo unspecified) 3610

----------
# ASSAY_COMMENT: MRT(0 to t) in C57BL6 mouse at 10 mg/kg, ip
# Assay type: ADME, organism-based
# PROTOCOL_CONDITIONS: in vivo
RECORDED_ENDPOINT: MRT last (h)
Output spec: scalar in h, unitless text.

Could you tell me which MRT last is on file for O=C(Nc1ccc(Br)cc1)NC1CCN(c2ccccc2)C1=O (stereo unspecified) ? 9.2

----------
# ASSAY_COMMENT: Distribution coefficient, logD of compound at pH 7.4 by shake flask method based LC-MS/MS analysis
# Type: physicochemical
# PROTOCOL_CONDITIONS: octanol/water, read-out: logD
RECORDED_ENDPOINT: logD

Consider the following illustrative entries.
{"columns": ["COMPOUND", "RECORDED_ENDPOINT", "ENDPOINT_VALUE"],
 "data": [
  ["COc1ccc(CNC(=O)NC2CCN(c3ccccc3)C2=O)cc1 (centres undefined)", "logD", 1.99],
  ["CC(C)n1cc(N2CCC(NC(=O)Nc3ccc(Br)cc3)C2=O)cn1 (centres undefined)", "logD", 3.7],
  ["CC(C)(C)OC(=O)N1CCC(N2CCC(NC(=O)Nc3ccc(Br)cc3)C2=O)CC1 (centres undefined)", "logD", 4.6]
]}

Report logD for O=C(Nc1ccc(Br)cc1)NC1CCN(c2ccc(F)cc2)C1=O (centres undefined) please. > 4

----------
# ASSAY_COMMENT: Tmax in C57BL6 mouse at 10 mg/kg, ip
# Format: ADME, organism-based
# PROTOCOL_CONDITIONS: in vivo
RECORDED_ENDPOINT: Tmax (min)
Use min as the unit, but write only the number.

Given O=C(Nc1ccc(Br)cc1)NC1CCN(c2ccccc2)C1=O (stereo unspecified) , state its recorded Tmax. 15

----------
Catalogue of compounds with associated log10 of solubility kinetic
# ASSAY_COMMENT: Kinetic solubility of compound in PBS at pH 7.4 by UV-VIS absorption spectrophotometry analysis
# Format: physicochemical
# PROTOCOL_CONDITIONS: PBS, read-out: Kinetic_solubility
Hello, just confirming the data are log10 of solubility kinetic with units of µM.

// known answers, use as guide
{"columns": ["COMPOUND", "log10 of solubility kinetic"],
 "data": [
  ["O=C(Nc1ccc(Br)cc1)NC1CCN(C2CCN(Cc3ccccc3)C2)C1=O (stereo in doubt; 18)", 2.32],
  ["O=C(Nc1ccc(Br)cc1)NC1CCN(C2CCN(Cc3ccccc3)CC2)C1=O (stereo not given)", 2.18],
  ["Cc1nn(C)cc1N1CCC(NC(=O)Nc2ccc(Br)cc2)C1=O (stereo not given)", 0.95],
  ["Cc1nn(-c2ccccc2)c(C)c1N1CCC(NC(=O)Nc2ccc(Br)cc2)C1=O (stereo not given)", 1.76]
]}

Entry under review: O=C(Nc1ccc(Br)cc1)NC1CCN(CC2CCNCC2)C1=O (stereo not given) . Reported log10 of solubility kinetic? 2.36

// provenance: ChEMBL document CHEMBL5038608
